LC retention time reference
# method: HILIC, HILICON iHILIC-(P) Classic, HILIC, PEEK, 100 × 2.1 mm, 5 µm, 40 °C, 0.15 mL/min, estimated dead time 1.5 min; A: water + 20 mM ammonium carbonate + 5 µM medronic acid; B: 10% water + 90% acetonitrile + 2 mM ammonium carbonate + 0.5 µM medronic acid; gradient (min/%B) 0/95 18/55 19/20 22/20 22.5/95 24/95 26/95
# setup-conditions: stereoisomer not certain
measurement-label: LC retention time (min)

>>> print(df.to_string())
                                    compound  result_value
 0     O=C(CO)COP(=O)(O)O [Triose phosphate]          11.4
 1  O=P(O)(O)OCC1OC(O)C(O)C1O (stereo not given) [Pentose-phosphate]          11.5
 2  NC(=O)c1ccc[n+](C2OC(COP(=O)(O)OP(=O)(O)OCC3OC(n4cnc5c(N)ncnc54)C(OP(=O)(O)O)C3O)C(O)C2O)c1 (stereo not given)          14.5
 3  O=P(O)(O)OC1OC(CO)C(O)C(O)C1O (stereo not given) [Glucose-1-phosphate]          12.3
 4  O=P(O)(O)OCC(O)CO (stereo not given) [Glycerol-3-phosphate]          11.1
 5  Nc1ncnc2c1ncn2C1OC(COP(=O)(O)OP(=O)(O)OP(=O)(O)O)C(O)C1O (stereo not given)          14.6
 6  O=C(CO)C(O)C(O)C(O)COP(=O)(O)O (stereo not given) [Fructose 6-phosphate]          12.3
 7      O=C(O)CC(O)C(=O)O (stereo not given)          11.9
 8  O=P(O)(O)OCC1OC(O)C(O)C(O)C1O (stereo not given) [Glucose-6-phosphate]          13.7
 9  CC(=O)SCCNC(=O)CCNC(=O)C(O)C(C)(C)COP(=O)(O)OP(=O)(O)OCC1OC(n2cnc3c(N)ncnc32)C(O)C1OP(=O)(O)O (stereo not given)            10
10                           O=C(O)C=CC(=O)O          12.7
11  NC(CCC(=O)NC(CSSCC(NC(=O)CCC(N)C(=O)O)C(=O)NCC(=O)O)C(=O)NCC(=O)O)C(=O)O (stereo not given)          15.1
12      NC(CC(=O)O)C(=O)O (stereo not given)          10.3
13     NC(CCC(=O)O)C(=O)O (stereo not given)          9.88
14  O=P(O)(O)OCC1OC(O)(COP(=O)(O)O)C(O)C1O (stereo not given) [Fructose-1,6-bisphosphate]          16.3
15      NC(=O)CC(N)C(=O)O (stereo not given)          10.4
16   NC(N)=NCCCC(N)C(=O)O (stereo not given)          18.9
17  O=C(O)CC(C(=O)O)C(O)C(=O)O (stereo not given)          15.9
18  Nc1ncnc2c1ncn2C1OC(CO)C(O)C1O (stereo not given)          3.83
19            CC(O)C(=O)O (stereo not given)          2.68

====

# method: HILIC, HILICON iHILIC-(P) Classic, HILIC, PEEK, 100 × 2.1 mm, 5 µm, 40 °C, 0.15 mL/min, estimated dead time 1.5 min; A: water + 20 mM ammonium carbonate + 5 µM medronic acid; B: 10% water + 90% acetonitrile + 2 mM ammonium carbonate + 0.5 µM medronic acid; gradient (min/%B) 0/95 18/55 19/20 22/20 22.5/95 24/95 26/95
# setup-conditions: stereoisomer not certain
LC retention time reference
measurement-label: LC retention time

In [3]: df
Out[3]:
                                   compound  result_value
0                O=C(O)CC(O)(CC(=O)O)C(=O)O      15.3 min
1                       O=C(O)CCC(=O)C(=O)O        13 min
2                            O=C(O)CCC(=O)O      11.2 min
3  Nc1ncnc2c1ncn2C1OC(COP(=O)(O)OP(=O)(O)O)C(O)C1O (stereo unspecified)        12 min
4  CC(=O)NC1C(OP(=O)(O)OP(=O)(O)OCC2OC(n3ccc(=O)[nH]c3=O)C(O)C2O)OC(CO)C(O)C1O (stereo unspecified)        12 min
5                     C=C(OP(=O)(O)O)C(=O)O      14.6 min

====

# method: HILIC, HILICON iHILIC-(P) Classic, HILIC, PEEK, 100 × 2.1 mm, 5 µm, 40 °C, 0.15 mL/min, estimated dead time 1.5 min; A: water + 20 mM ammonium carbonate + 5 µM medronic acid; B: 10% water + 90% acetonitrile + 2 mM ammonium carbonate + 0.5 µM medronic acid; gradient (min/%B) 0/95 18/55 19/20 22/20 22.5/95 24/95 26/95
# setup-conditions: stereoisomer not certain
LC retention time reference
measurement-label: LC retention time (min)

In [3]: df
Out[3]:
                                   compound  measurement_label  unit_string  result_value
0    NC(=O)CCC(N)C(=O)O (centres undefined)  LC retention time          min          10.2
1  NC(CCC(=O)NC(CS)C(=O)NCC(=O)O)C(=O)O (centres undefined)  LC retention time          min          9.58
2  NC(=O)c1ccc[n+](C2OC(COP(=O)(O)OP(=O)(O)OCC3OC(n4cnc5c(N)ncnc54)C(O)C3O)C(O)C2O)c1 (centres undefined)  LC retention time          min          10.3
3  NC(=O)C1=CN(C2OC(COP(=O)(O)OP(=O)(O)OCC3OC(n4cnc5c(N)ncnc54)C(O)C3O)C(O)C2O)C=CC1 (centres undefined)  LC retention time          min          9.88
